Here, each record is paired with measured melting point data.

molecule	melting point
O=c1cc(-c2ccc3c(c2)COC2(CCN(C4CCC4)CC2)O3)c(F)c[nH]1	254 to 255 °C

Prompt: Provide melting point value for the following molecule: Cc1cccc(N2CCN(c3ccc4c(c3)CCC3(CCN(C5CCC5)CC3)O4)CC2)n1
Response: 159 to 161 °C

Prompt: Fill in reported melting point for this entry: Cc1ccc(-c2ccc3c(c2)COC2(CCN(C4CCC4)CC2)O3)cn1
Response: 137 to 139 °C

Prompt: # return recorded melting point for input N#Cc1ccc(NC(=O)Nc2ccc3c(c2)COC2(CCN(C4CCC4)CC2)O3)cc1
Response: 170 to 172 °C

Prompt: Using known records, supply melting point for O=C(Nc1ccc2c(c1)COC1(CCN(C3CCC3)CC1)O2)c1ccc2nccn2c1
Response: 254 to 255 °C

Prompt: # return recorded melting point for entry COc1cc(-c2ccc3c(c2)COC2(CCN(C4CCC4)CC2)O3)ccc1C(=O)NC1CCOCC1
Response: 86 to 88 °C

Prompt: Please supply the value of reported melting point for the item OC(c1ccc2c(c1)COC1(CCN(C3CCC3)CC1)O2)c1cncs1 (stereo not shown)
Response: 72 to 75 °C

Prompt: Fill in reported melting point for this entry: CC(C)NC(=O)c1ccc(-c2ccc3c(c2)CCC2(CCN(C4CCC4)CC2)O3)cc1F
Response: 131 to 132 °C

Prompt: Complete the entry with melting point for CNC(=O)c1cc(COc2ccc3c(c2)CCC2(CCN(C4CCC4)CC2)O3)ccn1
Response: 141 to 143 °C
